Would you mind telling me the reported IC50 of each entry?
target: Voltage-gated inwardly rectifying potassium channel KCNH2 (Homo sapiens); assay: Inhibition of human ERG by MK499 binding assay
Sequence (Q12809 whole entry): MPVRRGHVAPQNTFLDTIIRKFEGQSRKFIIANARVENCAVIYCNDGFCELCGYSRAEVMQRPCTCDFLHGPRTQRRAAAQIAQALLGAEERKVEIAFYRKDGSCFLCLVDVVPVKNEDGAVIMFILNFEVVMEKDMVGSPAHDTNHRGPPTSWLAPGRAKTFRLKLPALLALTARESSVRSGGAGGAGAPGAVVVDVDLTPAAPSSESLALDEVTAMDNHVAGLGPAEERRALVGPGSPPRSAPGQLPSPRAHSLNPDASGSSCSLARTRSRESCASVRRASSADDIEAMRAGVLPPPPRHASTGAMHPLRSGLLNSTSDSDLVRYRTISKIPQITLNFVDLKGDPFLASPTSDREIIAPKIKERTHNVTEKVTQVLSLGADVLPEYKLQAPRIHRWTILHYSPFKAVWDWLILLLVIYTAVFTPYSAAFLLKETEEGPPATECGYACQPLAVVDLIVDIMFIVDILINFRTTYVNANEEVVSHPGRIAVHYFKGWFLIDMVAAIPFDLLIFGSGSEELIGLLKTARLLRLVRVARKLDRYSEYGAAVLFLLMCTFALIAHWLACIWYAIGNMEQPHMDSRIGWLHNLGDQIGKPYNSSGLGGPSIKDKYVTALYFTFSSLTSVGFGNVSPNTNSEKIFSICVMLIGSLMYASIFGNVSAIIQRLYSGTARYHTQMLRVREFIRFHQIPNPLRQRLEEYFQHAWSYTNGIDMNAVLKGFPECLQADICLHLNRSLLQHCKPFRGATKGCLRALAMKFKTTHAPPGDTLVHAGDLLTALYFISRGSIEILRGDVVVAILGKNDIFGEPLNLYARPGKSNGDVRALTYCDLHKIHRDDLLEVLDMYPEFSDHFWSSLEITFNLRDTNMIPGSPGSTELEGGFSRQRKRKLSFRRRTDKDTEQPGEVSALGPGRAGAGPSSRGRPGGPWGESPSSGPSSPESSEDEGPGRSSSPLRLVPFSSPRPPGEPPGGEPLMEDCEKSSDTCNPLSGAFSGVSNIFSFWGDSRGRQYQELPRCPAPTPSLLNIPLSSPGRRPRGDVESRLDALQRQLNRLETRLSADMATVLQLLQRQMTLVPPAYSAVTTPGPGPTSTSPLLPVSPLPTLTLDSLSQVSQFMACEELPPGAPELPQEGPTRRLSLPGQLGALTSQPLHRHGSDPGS
Numbers only, in µM.

Solved cases (5 shown):
{"columns": ["Compound", "Unit String", "IC50"],
 "data": [
  ["O=C1COc2ccc(CNC34CCC(CC5Cn6c(=O)ccc7ncc(F)c5c76)(CC3)OC4)nc2N1 (stereo in doubt; 9)", "µM", 15.2],
  ["O=C1COc2ccc(CNC34CCC(CC5Cn6c(=O)ccc7ncc(F)c5c76)(CC3)OC4)nc2N1 (racemic)", "µM", 23],
  ["O=C1COc2ccc(CNC34CCC(C[C@]5(O)Cn6c(=O)ccc7ncc(Cl)c5c76)(CC3)OC4)nc2N1", "µM", 53.3],
  ["CO[C@]1(CC23CCC(NCc4ccc5c(n4)NC(=O)CO5)(CC2)CO3)Cn2c(=O)ccc3ncc(F)c1c32", "µM", 24.5],
  ["CO[C@@]1(CC23CCC(NCc4ccc5c(n4)NC(=O)CO5)(CC2)CO3)Cn2c(=O)ccc3ncc(F)c1c32", "µM", 7.3]
]}

Read the next record carefully.
Lab note: Voltage-gated inwardly rectifying potassium channel KCNH2 (Homo sapiens) assay, enter IC50 for O=C1COc2ccc(CNC34CCC(CC5Cn6c(=O)ccc7ncc(F)c5c76)(CC3)OC4)nc2N1 (stereo in doubt; 10) here
12.3
